# TARGET OR TEST SYSTEM: cyclophilin A (CypA) (Homo sapiens (Human))
# RUN DESCRIPTION: Inhibitor binding to cyclophilin proteins by SPR, CypA
# Parameters: unit not given here
# CONDITION SET: 1:1 binding model
Starred links: 1 amine or outer side, 2 acyl side, 3 side chain; linkers in the order of their positions; H or OH if unused. Non-standard residues stand in square brackets, D forms with d. Residues, ends and D or L forms follow the SMILES beside them. X45 = C[C@H](CCC(=O)N1CC2CCC(C1)O2)[C@@H](C(=O)[*:2])N(C)[*:1]; X49 = C[C@H](CCC(=O)N1CCN(C)CC1)[C@@H](C(=O)[*:2])N(C)[*:1]; X36 = C[C@H](COCCN(C)CC(F)(F)F)[C@@H](C(=O)[*:2])N(C)[*:1]; X19 = COCCN1CCN(C[C@H](C)[C@@H](C(=O)[*:2])N(C)[*:1])CC1; X32 = C[C@H](CN1CC2(COC2)C1)[C@@H](C(=O)[*:2])N(C)[*:1]; MeBmt = C/C=C/C[C@@H](C)[C@@H](O)[C@H](NC)C(=O)O; NMeL = CN[C@@H](CC(C)C)C(=O)O; NMeV = CN[C@H](C(=O)O)C(C)C; dNMeA = CN[C@H](C)C(=O)O; Abu = CC[C@H](N)C(=O)O
OBSERVABLE: CypA Kd

Kindly note the recorded CypA Kd for C/C=C/C[C@@H](C)[C@@H](O)[C@H]1C(=O)N[C@@H](CC)C(=O)N(C)[C@H](C)C(=O)N(C)[C@@H]([C@@H](C)CN2CCN(CCOC)CC2)C(=O)N[C@@H](C(C)C)C(=O)N(C)[C@@H](CC(C)C)C(=O)N[C@@H](C)C(=O)N[C@H](C)C(=O)N(C)[C@@H](CC(C)C)C(=O)N(C)[C@@H](CC(C)C)C(=O)N(C)[C@@H](C(C)C)C(=O)N1C [Compound 2.17.4] (cyclo(A[dA][NMeL][NMeL][NMeV][MeBmt][Abu][dNMeA][X19]V[NMeL])) , which is 0.6

// CypA Kd lookup, compound = C/C=C/C[C@@H](C)[C@@H](O)[C@H]1C(=O)N[C@@H](CC)C(=O)N(C)[C@H](C)C(=O)N(C)[C@@H]([C@H](C)CCC(=O)N2CCN(C)CC2)C(=O)N[C@@H](C(C)C)C(=O)N(C)[C@@H](CC(C)C)C(=O)N[C@@H](C)C(=O)N[C@H](C)C(=O)N(C)[C@@H](CC(C)C)C(=O)N(C)[C@@H](CC(C)C)C(=O)N(C)[C@@H](C(C)C)C(=O)N1C [Compound 2.14.3] (cyclo(A[dA][NMeL][NMeL][NMeV][MeBmt][Abu][dNMeA][X49]V[NMeL])) , result: 2.0

Note to self: CypA Kd recorded for C/C=C/C[C@@H](C)[C@@H](O)[C@H]1C(=O)N[C@@H](CC)C(=O)N(C)[C@H](C)C(=O)N(C)[C@@H]([C@H](C)CN2CC3(COC3)C2)C(=O)N[C@@H](C(C)C)C(=O)N(C)[C@@H](CC(C)C)C(=O)N[C@@H](C)C(=O)N[C@H](C)C(=O)N(C)[C@@H](CC(C)C)C(=O)N(C)[C@@H](CC(C)C)C(=O)N(C)[C@@H](C(C)C)C(=O)N1C [Compound 2.5.16] (cyclo(A[dA][NMeL][NMeL][NMeV][MeBmt][Abu][dNMeA][X32]V[NMeL])) was 1.4

CypA Kd for C/C=C/C[C@@H](C)[C@@H](O)[C@H]1C(=O)N[C@@H](CC)C(=O)N(C)[C@H](C)C(=O)N(C)[C@@H]([C@H](C)CCC(=O)N2CC3CCC(C2)O3)C(=O)N[C@@H](C(C)C)C(=O)N(C)[C@@H](CC(C)C)C(=O)N[C@@H](C)C(=O)N[C@H](C)C(=O)N(C)[C@@H](CC(C)C)C(=O)N(C)[C@@H](CC(C)C)C(=O)N(C)[C@@H](C(C)C)C(=O)N1C [Compound 2.14.2] (cyclo(A[dA][NMeL][NMeL][NMeV][MeBmt][Abu][dNMeA][X45]V[NMeL])) is 2.4

Briefly, CypA Kd measured for C/C=C/C[C@@H](C)[C@@H](O)[C@H]1C(=O)N[C@@H](CC)C(=O)N(C)[C@H](C)C(=O)N(C)[C@@H]([C@H](C)COCCN(C)CC(F)(F)F)C(=O)N[C@@H](C(C)C)C(=O)N(C)[C@@H](CC(C)C)C(=O)N[C@@H](C)C(=O)N[C@H](C)C(=O)N(C)[C@@H](CC(C)C)C(=O)N(C)[C@@H](CC(C)C)C(=O)N(C)[C@@H](C(C)C)C(=O)N1C [Compound 2.8.3] (cyclo(A[dA][NMeL][NMeL][NMeV][MeBmt][Abu][dNMeA][X36]V[NMeL])) : 4.4

* * *

# Tested on: peripheral blood mononuclear cells (PBMC)
# RUN DESCRIPTION: Anti-proliferative or immunosuppressive activity, BrdU incorporation in PHA-stimulated PBMC
# Type: cell-based
# CONDITION SET: PHA 3 μg/ml, 60 hour compound treatment; read-out: EMV PBMC IC50
Starred links: 1 amine or outer side, 2 acyl side, 3 side chain; linkers in the order of their positions; H or OH if unused. Non-standard residues stand in square brackets, D forms with d. Residues, ends and D or L forms follow the SMILES beside them. X32 = C[C@H](CN1CC2(COC2)C1)[C@@H](C(=O)[*:2])N(C)[*:1]; X53 = C[C@H](CN(C)Cc1cccnc1)[C@@H](C(=O)[*:2])N(C)[*:1]; MeBmt = C/C=C/C[C@@H](C)[C@@H](O)[C@H](NC)C(=O)O; NMeL = CN[C@@H](CC(C)C)C(=O)O; NMeV = CN[C@H](C(=O)O)C(C)C; dNMeA = CN[C@H](C)C(=O)O; Abu = CC[C@H](N)C(=O)O
OBSERVABLE: pIC50
The quantity pIC50 is defined as the negative base-10 logarithm of the molar concentration.

// recorded pIC50 for C/C=C/C[C@@H](C)[C@@H](O)[C@H]1C(=O)N[C@@H](CC)C(=O)N(C)[C@H](C)C(=O)N(C)[C@@H]([C@H](C)CN(C)Cc2cccnc2)C(=O)N[C@@H](C(C)C)C(=O)N(C)[C@@H](CC(C)C)C(=O)N[C@@H](C)C(=O)N[C@H](C)C(=O)N(C)[C@@H](CC(C)C)C(=O)N(C)[C@@H](CC(C)C)C(=O)N(C)[C@@H](C(C)C)C(=O)N1C [Compound 2.5.25] (cyclo(A[dA][NMeL][NMeL][NMeV][MeBmt][Abu][dNMeA][X53]V[NMeL])) : 5.25

Form: compound = C/C=C/C[C@@H](C)[C@@H](O)[C@H]1C(=O)N[C@@H](CC)C(=O)N(C)[C@H](C)C(=O)N(C)[C@@H]([C@H](C)CN2CC3(COC3)C2)C(=O)N[C@@H](C(C)C)C(=O)N(C)[C@@H](CC(C)C)C(=O)N[C@@H](C)C(=O)N[C@H](C)C(=O)N(C)[C@@H](CC(C)C)C(=O)N(C)[C@@H](CC(C)C)C(=O)N(C)[C@@H](C(C)C)C(=O)N1C [Compound 2.5.16] (cyclo(A[dA][NMeL][NMeL][NMeV][MeBmt][Abu][dNMeA][X32]V[NMeL])) ; pIC50 = 4.74

* * *

# TARGET OR TEST SYSTEM: cyclophilin A (CypA) (Homo sapiens (Human), UniProt P62937)
# Sequence (P62937 whole entry): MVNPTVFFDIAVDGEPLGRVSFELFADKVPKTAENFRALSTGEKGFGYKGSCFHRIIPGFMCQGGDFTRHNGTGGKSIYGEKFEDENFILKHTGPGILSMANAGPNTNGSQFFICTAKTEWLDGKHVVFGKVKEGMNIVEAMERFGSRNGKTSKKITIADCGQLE
# RUN DESCRIPTION: Inhibitor binding to cyclophilin proteins by SPR, CypA;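 also: Single-cycle kinetics on a Biacore T200, compound injected at several concentrations for 1 min each at 50 µL/min, then 10 min dissociation, in HEPES pH 7.4 buffer with 3% DMSO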
# Set-up: unit not given here
# CONDITION SET: 1:1 binding model
Starred links: 1 amine or outer side, 2 acyl side, 3 side chain; linkers in the order of their positions; H or OH if unused. Non-standard residues stand in square brackets, D forms with d. Residues, ends and D or L forms follow the SMILES beside them. X54 = CCOC(=O)N1CCN(C[C@@H](C)[C@@H](C(=O)[*:2])N(C)[*:1])CC1; X41 = CC(C)N1CCN(C[C@@H](C)[C@@H](C(=O)[*:2])N(C)[*:1])CC1; MeBmt = C/C=C/C[C@@H](C)[C@@H](O)[C@H](NC)C(=O)O; NMeL = CN[C@@H](CC(C)C)C(=O)O; NMeV = CN[C@H](C(=O)O)C(C)C; dNMeA = CN[C@H](C)C(=O)O; Abu = CC[C@H](N)C(=O)O
OBSERVABLE: CypA Kd
Lab note: write the figure by itself, no unit.

Lookup result for C/C=C/C[C@@H](C)[C@@H](O)[C@H]1C(=O)N[C@@H](CC)C(=O)N(C)[C@H](C)C(=O)N(C)[C@@H]([C@H](C)CN2CCN(C(C)C)CC2)C(=O)N[C@@H](C(C)C)C(=O)N(C)[C@@H](CC(C)C)C(=O)N[C@@H](C)C(=O)N[C@H](C)C(=O)N(C)[C@@H](CC(C)C)C(=O)N(C)[C@@H](CC(C)C)C(=O)N(C)[C@@H](C(C)C)C(=O)N1C [Compound 2.5.12] (cyclo(A[dA][NMeL][NMeL][NMeV][MeBmt][Abu][dNMeA][X41]V[NMeL])) ; measured CypA Kd: 1.0

Query C/C=C/C[C@@H](C)[C@@H](O)[C@H]1C(=O)N[C@@H](CC)C(=O)N(C)[C@H](C)C(=O)N(C)[C@@H]([C@H](C)CN2CCN(C(=O)OCC)CC2)C(=O)N[C@@H](C(C)C)C(=O)N(C)[C@@H](CC(C)C)C(=O)N[C@@H](C)C(=O)N[C@H](C)C(=O)N(C)[C@@H](CC(C)C)C(=O)N(C)[C@@H](CC(C)C)C(=O)N(C)[C@@H](C(C)C)C(=O)N1C [Compound 2.5.31] (cyclo(A[dA][NMeL][NMeL][NMeV][MeBmt][Abu][dNMeA][X54]V[NMeL])) yields CypA Kd of 2.5
